- tgt: T1, BL6 mouse SIRP-α (mouse (C57BL/6 strain), UniProt P97797 32-148)
- T1 construct: also called C57BL/6
- T1 sequence: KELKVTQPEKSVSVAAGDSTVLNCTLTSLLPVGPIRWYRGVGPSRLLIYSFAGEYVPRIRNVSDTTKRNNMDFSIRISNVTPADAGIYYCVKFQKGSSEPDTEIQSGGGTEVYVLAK
- protocol-text: SPR
measured-property: pKd
Answer as the number alone; pKd is minus log10 of concentration in mol/L.

In the examples that follow, each entry is paired with its recorded pKd.
- Hum1/AB27_HC_Mutall (antibody, V domains shown) VH: EVQLVESGGGVVQPGGSLRLSCAASGFRFSSYAMSWVRQAPGKGLEWVSGISSGGDTYYVDSVKGRFTISRDNSKNTLYLQMNSLRAEDTAVYYCARETWNHLFDYWGQGTLVTVSS VL: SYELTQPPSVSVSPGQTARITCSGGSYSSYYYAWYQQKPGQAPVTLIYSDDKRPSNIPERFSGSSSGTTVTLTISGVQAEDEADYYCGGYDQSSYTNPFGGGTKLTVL: 8.04
- Hum8/AB25_HC_Mutall (antibody, V domains shown) VH: EVQLVESGGGVVQPGGSLRLSCAASGFTFSSNAMSWVRQAPGKGLEWVAGISSGSDTYYGDSVKGRFTISRDNSKNTLYLQMNSLTAEDTAVYYCARETWNHLFDYWGQGTLVTVSS VL: SYELTQPPSVSVSPGQTARITCSGGAYSSYYYAWYQQKPGQAPVLVIYSDSKRPSGIPERFSGSSSGTTVTLTISGVQAEDEADYYCGGYDQSSYTNPFGGGTKLTVL: 3.30

# evaluate next
The binder identified as Hum9/AB25_HC_Mutall (antibody, V domains shown) VH: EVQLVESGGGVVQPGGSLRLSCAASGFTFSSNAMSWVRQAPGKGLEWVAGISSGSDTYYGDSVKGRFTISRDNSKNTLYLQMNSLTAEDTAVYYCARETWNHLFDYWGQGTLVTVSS VL: SYELTQPPSVSVSPGQTARITCSGGAYSSYYYAWYQQKPGQAPVLVIYSDDKRPSGIPERFSGSSSGTTVTLTISGVQAEDEADYYCGGYDQSSYTNPFGGGTKLTVL registered its pKd at 7.94

These data points were gathered from patent US20210363269A1.
